test.name: self-splicing fitness, log relative to wild type (ln ratio); higher = more splicing; Tetrahymena group I intron in knt gene, E. coli kanamycin selection, DiMSum; sequences stand for … in CUCUCU…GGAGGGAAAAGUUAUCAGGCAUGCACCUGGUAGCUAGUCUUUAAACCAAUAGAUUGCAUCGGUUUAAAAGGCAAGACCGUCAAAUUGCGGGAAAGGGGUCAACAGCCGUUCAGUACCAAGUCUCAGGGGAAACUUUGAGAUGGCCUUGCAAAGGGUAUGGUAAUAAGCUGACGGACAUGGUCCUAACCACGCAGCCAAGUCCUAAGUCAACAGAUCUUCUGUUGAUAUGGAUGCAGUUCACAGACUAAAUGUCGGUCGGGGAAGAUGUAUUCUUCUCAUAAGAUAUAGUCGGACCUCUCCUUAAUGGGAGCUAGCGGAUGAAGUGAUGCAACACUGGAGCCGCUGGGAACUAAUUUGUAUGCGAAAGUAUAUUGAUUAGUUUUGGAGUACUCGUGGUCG;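 note: selection with 25 µg/mL kanamycin versus none on LB agar overnight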
measurement.setup: 37 °C
# key: entry, value: self-splicing fitness (ln)
In your answer, state the number alone without any accompanying words.

Worked examples follow.
{"sequence.string": "AGCCAGCAAUAUUACGGAUA", "self-splicing fitness (ln)": -1.51}
{"sequence.string": "AAUGAGCAAUAUUACGAGUC", "self-splicing fitness (ln)": -3.08}
{"sequence.string": "CAUAAGCAAUAUUACGUCGC", "self-splicing fitness (ln)": -3.2}
{"sequence.string": "CGUUAGCAAUAUUACGUAUU", "self-splicing fitness (ln)": -2.64}
{"sequence.string": "GUGUAGCAAUAUUACGGUGC", "self-splicing fitness (ln)": -2.18}

Proceed to the following item.
Report measured self-splicing fitness (ln); entry is GGAAAGCAAUAUUACGCAGG
-2.71

###

test.name: self-splicing fitness, log relative to wild type (ln ratio); higher = more splicing; Tetrahymena group I intron in knt gene, E. coli kanamycin selection, DiMSum; sequences stand for … in CUCUCU…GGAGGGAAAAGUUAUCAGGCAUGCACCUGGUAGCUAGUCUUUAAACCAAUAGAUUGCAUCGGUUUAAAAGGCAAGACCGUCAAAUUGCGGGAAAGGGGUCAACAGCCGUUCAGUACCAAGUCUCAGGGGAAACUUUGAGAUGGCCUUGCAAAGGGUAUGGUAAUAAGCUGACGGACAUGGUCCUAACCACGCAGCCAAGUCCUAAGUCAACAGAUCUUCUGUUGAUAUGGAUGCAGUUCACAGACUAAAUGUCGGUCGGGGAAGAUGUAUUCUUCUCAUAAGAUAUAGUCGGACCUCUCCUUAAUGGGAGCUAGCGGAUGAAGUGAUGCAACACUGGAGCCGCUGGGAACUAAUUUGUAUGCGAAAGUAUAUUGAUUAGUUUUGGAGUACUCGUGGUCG
measurement.setup: 37 °C
The following sequences are listed with their measured self-splicing fitness (ln) values.
Please state the value as a number alone, without comment.

{"sequence.string": "UCAUAGCAAUAUUACGCGUG", "self-splicing fitness (ln)": -1.67}
{"sequence.string": "AUGGAGCAAUAUUACGUUCA", "self-splicing fitness (ln)": -0.311}
{"sequence.string": "UAUCAGCAAUAUUACGCCUC", "self-splicing fitness (ln)": -1.96}

API: the following record is the query input.
Name the recorded self-splicing fitness (ln) of the item GCCCAGCAAUAUUACGAGUG in your answer.
-0.365

###

// reported self-splicing fitness (ln) for each item listed
test.name: self-splicing fitness, log relative to wild type (ln ratio); higher = more splicing; Tetrahymena group I intron in knt gene, E. coli kanamycin selection, DiMSum; sequences stand for … in CUCUCU…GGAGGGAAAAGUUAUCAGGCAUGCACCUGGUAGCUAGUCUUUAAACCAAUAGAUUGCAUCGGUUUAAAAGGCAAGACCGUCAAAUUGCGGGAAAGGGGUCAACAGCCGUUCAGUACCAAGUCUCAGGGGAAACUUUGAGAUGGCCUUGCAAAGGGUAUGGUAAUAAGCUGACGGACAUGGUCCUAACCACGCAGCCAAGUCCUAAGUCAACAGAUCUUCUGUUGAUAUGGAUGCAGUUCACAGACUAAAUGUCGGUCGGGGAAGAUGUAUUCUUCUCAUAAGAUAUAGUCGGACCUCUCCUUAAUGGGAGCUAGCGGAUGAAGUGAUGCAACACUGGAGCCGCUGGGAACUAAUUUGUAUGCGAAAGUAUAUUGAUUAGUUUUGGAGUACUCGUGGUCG
measurement.setup: 37 °C
Form rule: numeric answer, no unit written next to it.

The following sequences have reported results that may help.
{"sequence.string": "UCAAAGCAAUAUUACGAUGG", "measured": 0.127}
{"sequence.string": "AGCUAGCAAUAUUACGACCU", "measured": -0.166}
{"sequence.string": "GUAUAGCAAUAUUACGUCGU", "measured": -0.949}
{"sequence.string": "GGGCAGCAAUAUUACGUGAA", "measured": -0.507}
{"sequence.string": "AUUCAGCAAUAUUACGGCCC", "measured": -0.422}

Identify self-splicing fitness (ln) associated with the sequence AGGAAGCAAUAUUACGCCCA
1.47

Item AGUGAGCAAUAUUACGCGCU : provide self-splicing fitness (ln)
-1.83

Entry UCGUAGCAAUAUUACGGCUA needs its self-splicing fitness (ln) filled in; supply it.
-1.81

Please list self-splicing fitness (ln) recorded for the sequence CAACAGCAAUAUUACGGUGG
-0.724

Supply recorded self-splicing fitness (ln) for UUAAAGCAAUAUUACGCCGG here.
0.421

###

test.name: self-splicing fitness, log relative to wild type (ln ratio); higher = more splicing; Tetrahymena group I intron in knt gene, E. coli kanamycin selection, DiMSum; sequences stand for … in CUCUCU…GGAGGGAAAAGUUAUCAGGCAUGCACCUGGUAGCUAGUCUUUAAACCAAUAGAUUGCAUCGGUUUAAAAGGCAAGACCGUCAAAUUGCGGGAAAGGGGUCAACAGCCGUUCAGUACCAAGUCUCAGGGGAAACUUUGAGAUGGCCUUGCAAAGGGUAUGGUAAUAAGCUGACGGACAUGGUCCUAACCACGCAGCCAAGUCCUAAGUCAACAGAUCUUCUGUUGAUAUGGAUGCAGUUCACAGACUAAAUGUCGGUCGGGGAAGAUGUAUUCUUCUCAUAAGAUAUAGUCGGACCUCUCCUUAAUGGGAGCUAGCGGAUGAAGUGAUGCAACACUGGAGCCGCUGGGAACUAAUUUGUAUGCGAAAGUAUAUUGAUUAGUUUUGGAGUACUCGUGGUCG
measurement.setup: 37 °C
Measured self-splicing fitness (ln) values are reported for all entries that follow.
Respond numerically, and do not add a unit to the figure.

{"sequence.string": "AGUAAGCAAUAUUACGCCUC", "self-splicing fitness (ln)": -1.7}
{"sequence.string": "UCCGAGCAAUAUUACGGCAC", "self-splicing fitness (ln)": -2.76}
{"sequence.string": "AAACAGCAAUAUUACGACAA", "self-splicing fitness (ln)": -0.417}
{"sequence.string": "GACAAGCAAUAUUACGGCAG", "self-splicing fitness (ln)": -3.08}

Input GUGAAGCAAUAUUACGGAAG , output reported self-splicing fitness (ln).
0.825

Quickly give me recorded self-splicing fitness (ln) for AUGCAGCAAUAUUACGCCUC
-1.35

For the sequence CCUCAGCAAUAUUACGAUUU , give its reported self-splicing fitness (ln).
-1.39

###

In this section we review reported self-splicing fitness (ln) values for a set of sequences.
test.name: self-splicing fitness, log relative to wild type (ln ratio); higher = more splicing; Tetrahymena group I intron in knt gene, E. coli kanamycin selection, DiMSum; sequences stand for … in CUCUCU…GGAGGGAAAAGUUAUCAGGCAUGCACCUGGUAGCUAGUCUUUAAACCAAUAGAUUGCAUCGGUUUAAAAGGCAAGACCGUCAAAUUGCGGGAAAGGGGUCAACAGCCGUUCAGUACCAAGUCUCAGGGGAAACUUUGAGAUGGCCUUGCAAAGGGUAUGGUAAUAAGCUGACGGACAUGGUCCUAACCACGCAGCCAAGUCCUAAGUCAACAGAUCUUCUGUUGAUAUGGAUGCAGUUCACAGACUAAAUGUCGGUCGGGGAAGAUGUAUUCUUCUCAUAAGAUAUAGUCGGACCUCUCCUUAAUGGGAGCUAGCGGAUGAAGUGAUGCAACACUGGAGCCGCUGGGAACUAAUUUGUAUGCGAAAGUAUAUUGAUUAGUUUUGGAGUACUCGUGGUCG
measurement.setup: 37 °C
Keep the answer to the number alone.

Check out these entries, answers already filled in.
{"sequence.string": "AUGAAGCAAUAUUACGUACG", "self-splicing fitness (ln)": -0.446}
{"sequence.string": "GAGGAGCAAUAUUACGUCGC", "self-splicing fitness (ln)": -1.54}
{"sequence.string": "CCGAAGCAAUAUUACGACUG", "self-splicing fitness (ln)": 0.835}
{"sequence.string": "ACACAGCAAUAUUACGUGAC", "self-splicing fitness (ln)": -2.05}
{"sequence.string": "ACCAAGCAAUAUUACGAAUU", "self-splicing fitness (ln)": -2.13}

Entry AUCAAGCAAUAUUACGAAUC needs its self-splicing fitness (ln) filled in; supply it.
-2.78

Tell me measured self-splicing fitness (ln) for GCUCAGCAAUAUUACGUUGG please.
-2.46

Return value of self-splicing fitness (ln) for input CGUGAGCAAUAUUACGAUCA , no commentary.
-0.309
